All values here come from ChEMBL document CHEMBL4414644.

- assay-overview: Apparent partition coefficient, logD of the compound at pH 7.4
- Format: physicochemical
- condition-set: octanol/water
property: logD
Give a plain numeric answer without units written out.

IN: # get_value(readout='logD', item= COC(=O)C1=C(CN2CCOC[C@H]2C(=O)O)NC(c2nccs2)=N[C@H]1c1ccc(Cl)c(F)c1 )
OUT: 0.38

---

- assay-overview: in vivo
- condition-set: BALB/c, mouse, liver/plasma, po, 3 mg/kg
property: Kp
Give a plain numeric answer without units written out.

IN: # get_value(readout='Kp', item= COC(=O)C1=C(CN2CCOC[C@H]2C(=O)O)NC(c2nccs2)=N[C@H]1c1ccc(Cl)c(F)c1 )
OUT: 38
